- SYSTEM_NAME: human recombinant mGluR5 (Homo sapiens)
- Construct: hygromycin and geneticin selection
- Sequence (P41594 21-1212): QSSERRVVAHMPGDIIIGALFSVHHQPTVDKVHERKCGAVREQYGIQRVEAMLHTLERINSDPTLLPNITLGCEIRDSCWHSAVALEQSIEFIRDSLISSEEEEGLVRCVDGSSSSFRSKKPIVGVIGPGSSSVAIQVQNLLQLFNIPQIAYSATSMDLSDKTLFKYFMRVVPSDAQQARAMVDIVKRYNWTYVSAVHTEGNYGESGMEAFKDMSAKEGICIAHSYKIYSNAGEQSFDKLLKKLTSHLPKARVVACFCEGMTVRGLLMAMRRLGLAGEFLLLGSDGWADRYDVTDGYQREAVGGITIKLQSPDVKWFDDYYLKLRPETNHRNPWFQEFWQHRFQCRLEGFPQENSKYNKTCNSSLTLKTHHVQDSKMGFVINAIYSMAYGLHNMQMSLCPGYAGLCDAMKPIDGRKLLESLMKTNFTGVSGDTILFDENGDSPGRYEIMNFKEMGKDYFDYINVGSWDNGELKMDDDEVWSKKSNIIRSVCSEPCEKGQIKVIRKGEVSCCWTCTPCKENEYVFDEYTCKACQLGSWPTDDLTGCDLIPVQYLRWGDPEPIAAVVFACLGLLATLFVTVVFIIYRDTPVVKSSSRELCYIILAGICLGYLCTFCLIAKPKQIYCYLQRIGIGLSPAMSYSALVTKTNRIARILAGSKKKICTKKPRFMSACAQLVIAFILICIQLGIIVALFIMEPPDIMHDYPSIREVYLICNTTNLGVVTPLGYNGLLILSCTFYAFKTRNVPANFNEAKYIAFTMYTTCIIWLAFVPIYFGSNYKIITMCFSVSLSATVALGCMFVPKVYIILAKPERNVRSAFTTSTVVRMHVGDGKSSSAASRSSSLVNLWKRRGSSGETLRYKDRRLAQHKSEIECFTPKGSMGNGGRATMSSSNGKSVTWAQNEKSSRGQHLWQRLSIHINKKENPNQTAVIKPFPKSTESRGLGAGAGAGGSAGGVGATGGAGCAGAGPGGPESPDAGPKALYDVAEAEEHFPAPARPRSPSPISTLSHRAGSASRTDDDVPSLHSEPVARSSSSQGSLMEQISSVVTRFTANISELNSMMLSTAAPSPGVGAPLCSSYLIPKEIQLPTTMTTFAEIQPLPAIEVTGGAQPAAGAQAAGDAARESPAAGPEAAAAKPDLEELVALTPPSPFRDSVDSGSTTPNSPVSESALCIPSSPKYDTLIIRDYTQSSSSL
- ASSAY: positive modulation of mGluR5, calcium based FLIPR assay
- SETTINGS: HEK 293 cell line expressing human recombinant mGluR5; Ca2+ peak height after glutamate at approximately 5% basal stimulation; nonlinear regression
pEC50: −log10 of the molar value.
ENDPOINT_LABEL: pEC50

For orientation, consider the following solved cases.
| COMPOUND | SYSTEM_NAME | pEC50 |
| --- | --- | --- |
| COc1cc(C(=O)N2CCN(C(=O)c3ncn(-c4cccc(C)c4)n3)C(C)C2)ccc1C (stereo not shown) | human recombinant mGluR5 (Homo sapiens) | 6.43 |
| CC1(C)CN(C(=O)c2cccc(C(F)F)c2)CCN1C(=O)c1ncn(-c2ccccc2)n1 | human recombinant mGluR5 (Homo sapiens) | 7.33 |
| COc1nc(C(=O)N2CCN(C(=O)c3ncn(-c4cccc(Cl)c4)n3)C(C)(C)C2)cc2ccccc12 | human recombinant mGluR5 (Homo sapiens) | 7.06 |

I: Cc1cc2cc(C(=O)N3CCN(C(=O)c4ncn(-c5ccccc5)n4)C(C)(C)C3)ccc2[nH]1
II: CC(C)(C)c1cccc(C(=O)N2CCN(C(=O)c3ncn(-c4ccccc4)n3)C(C)(C)C2)c1
III: CC1CN(C(=O)c2ncn(-c3cccc(Cl)c3)n2)CCN1C(=O)c1ccc2c(c1)nc(CC1CCCC1)n2C (stereo not shown)
IV: CC1(C)CN(C(=O)c2cccc(-c3nccs3)c2)CCN1C(=O)c1ncn(-c2cccc(Cl)c2)n1
Output the entries ranked by pEC50 from maximum down to minimum. Answer by listing the labels in the order asked for.
II, IV, I, III

All values here come from patent US8883789B2.
